# System: Trypanosoma brucei brucei
# PROTOCOL: Antitrypanosomal activity against Trypanosoma brucei brucei S427 by resazurin dye based fluorescence assay
# Type: functional
TEST_READOUT: GI50 (µM)

CCOC(=O)O[C@H]1C=C[C@]2(O[C@H]([C@@H](CC)C(=O)[C@@H](C)[C@@H](O)[C@H](C)[C@@H]3O[C@@H]([C@@H](CC)C(=O)O)CC[C@@H]3C)[C@@H](C)C[C@H]2C)O[C@@]12CC[C@@](C)([C@H]1CC[C@](O)(CC)[C@H](C)O1)O2: 0.2

[A] CC[C@@H](C(=O)[C@@H](C)[C@@H](O)[C@H](C)[C@@H]1O[C@@H]([C@@H](CC)C(=O)ONC(=O)c2ccccc2)CC[C@@H]1C)[C@H]1O[C@]2(C=C[C@H](O)[C@]3(CC[C@@](C)([C@H]4CC[C@](O)(CC)[C@H](C)O4)O3)O2)[C@H](C)C[C@@H]1C
[B] Cc1ccc(C(=O)Nc2ccc(S(=O)(=O)O)c3cc(S(=O)(=O)O)cc(S(=O)(=O)O)c23)cc1NC(=O)c1cccc(NC(=O)Nc2cccc(C(=O)Nc3cc(C(=O)Nc4ccc(S(=O)(=O)O)c5cc(S(=O)(=O)O)cc(S(=O)(=O)O)c45)ccc3C)c2)c1
[C] CC[C@@H](C(=O)[C@@H](C)[C@@H](O)[C@H](C)[C@@H]1O[C@@H]([C@@H](CC)C(=O)ONC(=O)c2ccccc2O)CC[C@@H]1C)[C@H]1O[C@]2(C=C[C@H](O)[C@]3(CC[C@@](C)([C@H]4CC[C@](O)(CC)[C@H](C)O4)O3)O2)[C@H](C)C[C@@H]1C
Challenge: Order each entry by recorded GI50, climbing from the minimum. Answer by listing the labels in the order asked for.
Response given: B, A, C
